Here the recorded IC50 is given for each entry.
Target: Serine/threonine-protein phosphatase 5 (Homo sapiens, UniProt P53041)
Sequence (P53041 whole entry): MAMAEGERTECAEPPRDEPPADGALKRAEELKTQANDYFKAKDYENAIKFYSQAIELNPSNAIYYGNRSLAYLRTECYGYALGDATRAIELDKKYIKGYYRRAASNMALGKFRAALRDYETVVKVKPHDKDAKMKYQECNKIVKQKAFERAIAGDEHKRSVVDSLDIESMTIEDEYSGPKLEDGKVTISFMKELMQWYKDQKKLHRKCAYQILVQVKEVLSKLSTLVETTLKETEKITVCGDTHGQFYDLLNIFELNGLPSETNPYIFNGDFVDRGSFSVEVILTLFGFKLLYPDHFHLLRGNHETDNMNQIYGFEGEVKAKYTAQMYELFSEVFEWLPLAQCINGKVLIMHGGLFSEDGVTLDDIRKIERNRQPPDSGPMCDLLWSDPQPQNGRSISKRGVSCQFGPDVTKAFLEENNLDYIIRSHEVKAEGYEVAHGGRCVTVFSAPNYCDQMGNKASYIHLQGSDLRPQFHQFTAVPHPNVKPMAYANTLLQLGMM
Assay: Inhibition of PPP5C (unknown origin) phosphatase domain
recorded.metric: IC50 (µM)

C[C@H]1C[C@@H]2O[C@H]1[C@@H](C(=O)O)[C@H]2C(=O)O: 1
CCCCO[C@H]1C[C@@H]2O[C@H]1[C@@H](C(=O)O)[C@H]2C(=O)O: 0.7
O=C1OC(=O)C2C3CCC(O3)C12 (centres undefined): 1
